- System: SK-N-MC
- MEASUREMENT_DESCRIPTION: Induction of iron mobilization in 59Fe]transferrin labeled human SK-N-MC cells assessed as iron release at 25 uM after 3 hrs by gamma scintillation counter
- Format: functional
PROPERTY_LABEL: Activity

Consider the reported Activity for these molecules:
C/C(=N\NC(=S)Nc1ccccc1)c1ccccn1
33%
Cc1ncc(CO)c(/C=N/NC(=O)c2ccncc2)c1O [PYRIDOXAL ISONICOTINOYL HYDRAZONE]
37%
CC(=O)N(O)CCCCCNC(=O)CCC(=O)N(O)CCCCCNC(=O)CCC(=O)N(O)CCCCCN
13%

Now for the molecule whose Activity we want.
So the reported Activity for `CN(C)C(=S)NN=C(c1ccccn1)c1ccccn1` , on SK-N-MC, turned out to be 27%

Where do the numbers come from? From ChEMBL document CHEMBL1140951.
